Target: BRM (Homo sapiens, UniProt P51531)
Construct: In-Cell Western Screen of BRM Degradation in SW1573 Cells; endogenous in cells; host or cells: SW1573 cells
Sequence (P51531 whole entry): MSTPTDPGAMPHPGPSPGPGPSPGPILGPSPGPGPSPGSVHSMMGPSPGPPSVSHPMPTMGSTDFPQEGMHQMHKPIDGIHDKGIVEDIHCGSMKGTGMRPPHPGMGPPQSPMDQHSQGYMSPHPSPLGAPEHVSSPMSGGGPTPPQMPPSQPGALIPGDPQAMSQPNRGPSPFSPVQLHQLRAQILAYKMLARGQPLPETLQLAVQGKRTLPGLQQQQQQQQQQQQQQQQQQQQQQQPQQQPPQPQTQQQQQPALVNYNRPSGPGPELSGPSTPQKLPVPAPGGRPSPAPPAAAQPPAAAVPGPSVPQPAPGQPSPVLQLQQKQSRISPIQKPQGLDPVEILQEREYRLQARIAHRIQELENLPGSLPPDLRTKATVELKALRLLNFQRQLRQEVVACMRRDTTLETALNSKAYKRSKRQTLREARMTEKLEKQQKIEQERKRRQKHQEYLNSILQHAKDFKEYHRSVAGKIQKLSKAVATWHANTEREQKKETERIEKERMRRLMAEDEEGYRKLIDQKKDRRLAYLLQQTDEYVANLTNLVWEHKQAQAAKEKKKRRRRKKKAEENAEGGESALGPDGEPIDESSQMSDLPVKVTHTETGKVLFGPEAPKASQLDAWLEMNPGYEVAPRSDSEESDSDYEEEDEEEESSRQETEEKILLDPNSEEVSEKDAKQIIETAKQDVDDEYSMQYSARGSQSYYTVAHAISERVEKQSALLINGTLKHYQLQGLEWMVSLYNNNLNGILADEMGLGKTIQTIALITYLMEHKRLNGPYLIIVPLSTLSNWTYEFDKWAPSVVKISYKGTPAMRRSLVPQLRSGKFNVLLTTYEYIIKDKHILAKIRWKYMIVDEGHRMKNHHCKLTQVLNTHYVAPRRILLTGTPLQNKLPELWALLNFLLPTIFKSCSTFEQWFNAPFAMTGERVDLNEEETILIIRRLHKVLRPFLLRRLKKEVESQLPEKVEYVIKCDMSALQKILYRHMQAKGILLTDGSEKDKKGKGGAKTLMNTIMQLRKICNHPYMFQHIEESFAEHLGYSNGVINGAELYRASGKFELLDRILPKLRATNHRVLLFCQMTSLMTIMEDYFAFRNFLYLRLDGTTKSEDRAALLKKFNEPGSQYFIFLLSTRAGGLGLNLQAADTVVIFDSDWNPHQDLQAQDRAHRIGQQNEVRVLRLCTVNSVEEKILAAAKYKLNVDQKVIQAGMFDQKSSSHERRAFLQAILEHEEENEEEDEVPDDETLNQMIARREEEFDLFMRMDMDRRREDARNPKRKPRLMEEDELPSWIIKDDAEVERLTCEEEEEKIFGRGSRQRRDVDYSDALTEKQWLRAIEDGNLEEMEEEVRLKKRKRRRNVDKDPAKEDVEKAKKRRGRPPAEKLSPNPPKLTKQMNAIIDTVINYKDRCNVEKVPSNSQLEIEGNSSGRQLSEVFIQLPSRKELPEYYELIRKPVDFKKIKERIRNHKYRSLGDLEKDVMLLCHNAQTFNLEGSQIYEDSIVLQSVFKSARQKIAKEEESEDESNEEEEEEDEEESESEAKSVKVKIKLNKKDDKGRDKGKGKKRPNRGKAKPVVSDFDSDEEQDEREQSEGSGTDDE
Assay: Western blot / In-Cell Western screen of BRM degradation in SW1573 cells
Assay type: cell-based
Settings: overnight (18-20 hours) treatment, read-out: Dmax (%) (% degraded)
Endpoint Label: Dmax

>  <Molecule>
Cc1ncsc1-c1ccc([C@H](C)NC(=O)[C@@H]2C[C@@H](O)CN2C(=O)[C@@H](c2cc(N3CCC(CN4CCC(O[C@H]5C[C@H](N6CCC(CN7CC8(C7)CN(c7cc(-c9ccccc9O)nnc7N)CCO8)CC6)C5)CC4)CC3)no2)C(C)C)cc1 [Compound 11]

>  <Dmax>
> 75%

$$$$
>  <Molecule>
CC(C)[C@@H](C(=O)N1C[C@H](O)C[C@H]1C(=O)N[C@@H](C)c1ccc(-c2ccnn2C)cc1)c1cc(N2CCC(CN3CCC(O[C@H]4C[C@H](C#Cc5cn6cc(-c7ccccc7O)nc6nc5N)C4)CC3)CC2)no1 [Compound 33]

>  <Dmax>
> 75%

$$$$

Here's the next entry for you.
Provide value of Dmax for this record tested with BRM (Homo sapiens, UniProt P51531): Cc1ncsc1-c1ccc([C@H](C)NC(=O)[C@@H]2C[C@@H](O)CN2C(=O)[C@@H](c2cc(OCCN3CCN(CCOc4cc(N5CCN(c6cc(-c7ccccc7O)nnc6N)CC56COC6)ccn4)CC3)no2)C(C)C)cn1 [Compound 17]
> 75%

====

Here the recorded DC50 is given for each entry.
Target: BRM (Homo sapiens, UniProt P51531)
Construct: In-Cell Western Screen of BRM Degradation in SW1573 Cells; endogenous in cells; host or cells: SW1573 cells
Assay: Western blot / In-Cell Western screen of BRM degradation in SW1573 cells
Format: cell-based
Conditions: overnight (18-20 hours) treatment

>  <Cpd Smiles>
Cc1ncsc1-c1ccc([C@H](C)NC(=O)[C@@H]2C[C@@H](O)CN2C(=O)[C@@H](c2cc(N3CCC(CN4CCC5(CC4)CC(N4CCO[C@@H](CN6CC7(CCN(c8cc(-c9ccccc9O)nnc8N)CC7)C6)C4)C5)CC3)no2)C(C)C)cc1

>  <Result>
10 to 30 nM

$$$$
>  <Cpd Smiles>
CC(C)[C@@H](C(=O)N1C[C@H](O)C[C@H]1C(=O)N[C@@H](C)c1ccc(-c2ccnn2C)cc1)c1cc(N2CCC(CN3CCC(O[C@H]4C[C@H](C#Cc5cn6cc(-c7ccccc7O)nc6nc5N)C4)CC3)CC2)no1

>  <Result>
< 2.5 nM

$$$$
>  <Cpd Smiles>
Cc1ncsc1-c1ccc([C@H](C)NC(=O)[C@@H]2C[C@@H](O)CN2C(=O)[C@@H](c2cc(N3CCC(CN4CCC(O[C@H]5C[C@H](Oc6cc(N7CCN(c8cc(-c9ccccc9O)nnc8N)CC78COC8)ccn6)C5)CC4)CC3)no2)C(C)C)cc1

>  <Result>
< 2.5 nM

$$$$

Fill in the blank: the reported DC50 of CC(C)[C@@H](C(=O)N1C[C@H](O)C[C@H]1C(=O)N[C@@H](C)c1ccc(C#N)cc1)c1cc(OCCN2CCN(CCOc3cc(N4CCN(c5cc(-c6ccccc6O)nnc5N)CC45COC5)ccn3)CC2)no1 is ____.
2.5 to 10 nM

Where do the numbers come from? From patent US20250064945A1.
